All values here come from patent US12264159B2.

Attribute: EC50
test system: HBV in 2.2.15 cells; assay: 2.2.15 cells: viral product in cell lysates quantified via quantitative real time PCR; format: cell-based, hepatitis B virus (HBV); conditions: Hepatitis B virus, 120 h, day 5 post treatment, 50% reduction of viral product vs no drug controls, readout (qPCR, HBsAg or HBeAg) not specified for the column
reported property: EC50

test_smiles=CC(C)(C)[C@@H]1Cn2nc(C3CC3)c(-c3ccccc3F)c2-c2cc(=O)c(C(=O)O)cn21 result="< 100 nM"
test_smiles=CCCCOc1ccccc1-c1cc2n(n1)C[C@@H](C(C)(C)C)n1cc(C(=O)O)c(=O)cc1-2 result="< 100 nM"
test_smiles=CC(C)(C)[C@@H]1Cn2nc(-c3c(F)cccc3C(N)=O)cc2-c2cc(=O)c(C(=O)O)cn21 result="200 to 1000 nM"
test_smiles=Cc1cccc(C)c1-c1cc2n(n1)C[C@@H](C(C)(C)C)n1cc(C(=O)O)c(=O)cc1-2 result="200 to 1000 nM"
test_smiles=CC(C)(C)[C@@H]1Cn2ncc(Cl)c2-c2cc(=O)c(C(=O)O)cn21 result="200 to 1000 nM"
test_smiles=COc1cccc(-c2cc3n(n2)C[C@@H](C(C)(C)C)n2cc(C(=O)O)c(=O)cc2-3)c1OC result="200 to 1000 nM"
